system.under.test: SHP2 protein (Homo sapiens)
Sequence (Q06124 1-593): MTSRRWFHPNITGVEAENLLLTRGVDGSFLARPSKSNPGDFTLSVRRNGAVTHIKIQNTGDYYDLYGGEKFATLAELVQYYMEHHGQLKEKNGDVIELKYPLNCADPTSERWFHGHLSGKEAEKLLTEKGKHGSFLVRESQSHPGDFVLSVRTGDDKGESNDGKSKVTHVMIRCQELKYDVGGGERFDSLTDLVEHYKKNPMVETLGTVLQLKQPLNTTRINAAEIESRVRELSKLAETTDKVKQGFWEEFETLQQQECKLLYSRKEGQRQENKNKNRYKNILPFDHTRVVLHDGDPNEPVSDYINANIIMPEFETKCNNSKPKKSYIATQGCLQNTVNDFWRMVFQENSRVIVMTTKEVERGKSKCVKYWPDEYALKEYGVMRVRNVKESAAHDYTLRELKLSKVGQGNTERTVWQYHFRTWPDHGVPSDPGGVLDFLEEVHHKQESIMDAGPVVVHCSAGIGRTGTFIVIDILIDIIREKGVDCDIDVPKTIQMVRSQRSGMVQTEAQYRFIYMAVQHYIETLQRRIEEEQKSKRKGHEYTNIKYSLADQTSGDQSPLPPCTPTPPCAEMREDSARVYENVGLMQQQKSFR
experimental.details: Degradation activity on SHP2 protein in MIA Paca-2 cells (Western blot, DC50)
Format: cell-based
Parameters: endogenous in cells; host or cells: MIA Paca-2 cells
measurement.setup: read-out: Degradation activity for differenct cell lines MIA Paca-2 (DC50)
The following compounds are shown together with reported DC50 values.
value.type: DC50

• CC1(N)CCN(c2cnc(Sc3cccc(NC(=O)c4ccc(N5CCC(N6CC=C(c7ccc(C(=O)NCc8ccc9c(c8)CN(C8CCC(=O)NC8=O)C9=O)nc7)CC6)C(F)C5)nc4)c3)cn2)CC1 (stereo not drawn) = < 100 nM
• CC1(N)CCN(c2cnc(Sc3cccc(NC(=O)CCCCCCN4CC5(CCN(c6ncc(C(=O)NCc7ccc8c(c7)CN(C7CCC(=O)NC7=O)C8=O)cn6)C5)C4)c3)cn2)CC1 (stereo not drawn) = 100 to 1000 nM
• Cc1ncsc1-c1ccc([C@H](C)NC(=O)[C@@H]2C[C@@H](O)CN2C(=O)[C@@H](NC(=O)c2cnc(N3CC(OCCCCCCC(=O)Nc4cccc(Sc5cnc(N6CCC(C)(N)CC6)cn5)c4)C3)nc2)C(C)(C)C)cc1 = < 100 nM
